Target: Tyrosine-protein kinase Fer (Homo sapiens, UniProt P16591)
Sequence (P16591 whole entry): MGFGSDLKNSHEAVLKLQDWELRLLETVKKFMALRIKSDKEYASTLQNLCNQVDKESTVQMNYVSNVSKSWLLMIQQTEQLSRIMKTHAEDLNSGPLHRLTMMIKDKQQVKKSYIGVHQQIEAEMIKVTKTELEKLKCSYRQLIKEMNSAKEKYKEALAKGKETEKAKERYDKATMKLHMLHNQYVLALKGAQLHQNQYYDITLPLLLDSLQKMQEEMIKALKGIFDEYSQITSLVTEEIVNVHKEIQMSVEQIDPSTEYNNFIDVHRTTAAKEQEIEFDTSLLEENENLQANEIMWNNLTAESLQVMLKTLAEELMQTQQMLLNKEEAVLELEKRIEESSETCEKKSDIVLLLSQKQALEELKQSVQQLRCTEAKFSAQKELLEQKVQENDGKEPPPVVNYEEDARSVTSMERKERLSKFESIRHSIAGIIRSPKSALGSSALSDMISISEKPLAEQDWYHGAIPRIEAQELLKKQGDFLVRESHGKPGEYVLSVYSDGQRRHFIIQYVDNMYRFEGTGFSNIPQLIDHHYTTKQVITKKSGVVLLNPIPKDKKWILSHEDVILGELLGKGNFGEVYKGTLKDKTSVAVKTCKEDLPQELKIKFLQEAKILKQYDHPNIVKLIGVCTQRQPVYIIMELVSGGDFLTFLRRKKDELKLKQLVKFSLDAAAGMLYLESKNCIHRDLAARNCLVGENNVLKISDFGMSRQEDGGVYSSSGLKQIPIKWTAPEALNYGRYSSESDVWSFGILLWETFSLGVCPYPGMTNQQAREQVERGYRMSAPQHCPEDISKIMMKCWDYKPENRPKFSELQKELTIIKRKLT
Endpoint name: Kd
Number plus unit, in that order.

Tested on Tyrosine-protein kinase Fer (Homo sapiens, UniProt P16591): "CCOc1cn(-c2ccc(F)cc2C)nc1C(=O)Nc1ccc(Oc2ccnc3cc(OC)c(OC)cc23)c(F)c1" . Observed Kd: 107 nM

----------
Target: Tyrosine-protein kinase Mer (Homo sapiens, UniProt Q12866)
Sequence (Q12866 whole entry): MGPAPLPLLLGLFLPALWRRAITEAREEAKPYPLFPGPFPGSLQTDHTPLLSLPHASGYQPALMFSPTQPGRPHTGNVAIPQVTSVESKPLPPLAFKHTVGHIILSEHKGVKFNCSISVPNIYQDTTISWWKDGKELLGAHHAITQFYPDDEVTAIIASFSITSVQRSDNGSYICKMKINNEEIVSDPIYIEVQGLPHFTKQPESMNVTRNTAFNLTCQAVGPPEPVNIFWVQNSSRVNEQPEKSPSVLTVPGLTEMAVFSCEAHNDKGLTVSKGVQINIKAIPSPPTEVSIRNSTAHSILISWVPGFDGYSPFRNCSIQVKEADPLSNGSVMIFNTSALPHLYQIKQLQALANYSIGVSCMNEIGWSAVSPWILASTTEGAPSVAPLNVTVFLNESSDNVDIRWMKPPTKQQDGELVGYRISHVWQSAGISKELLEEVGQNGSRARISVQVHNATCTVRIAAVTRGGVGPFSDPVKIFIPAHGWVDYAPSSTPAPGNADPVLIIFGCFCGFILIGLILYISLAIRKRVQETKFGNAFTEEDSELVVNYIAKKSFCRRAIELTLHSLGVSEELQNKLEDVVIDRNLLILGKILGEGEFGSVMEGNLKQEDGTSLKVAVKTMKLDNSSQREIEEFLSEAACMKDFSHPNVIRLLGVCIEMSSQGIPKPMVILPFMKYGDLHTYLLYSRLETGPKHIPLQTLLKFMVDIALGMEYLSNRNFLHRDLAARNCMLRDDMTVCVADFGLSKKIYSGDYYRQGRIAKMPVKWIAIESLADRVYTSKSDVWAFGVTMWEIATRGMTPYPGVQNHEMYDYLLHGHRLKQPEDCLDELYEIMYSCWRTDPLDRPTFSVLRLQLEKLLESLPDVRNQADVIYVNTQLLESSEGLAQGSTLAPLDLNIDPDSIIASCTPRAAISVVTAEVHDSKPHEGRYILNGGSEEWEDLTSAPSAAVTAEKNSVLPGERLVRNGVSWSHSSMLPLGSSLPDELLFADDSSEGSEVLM
Endpoint name: IC50

Entry under test: "CCOc1cn(-c2ccc(F)cc2C)nc1C(=O)Nc1ccc(Oc2ccnc3cc(OC)c(OC)cc23)c(F)c1" . Its IC50 was < 5 nM

----------
Molecular target: Dual specificity mitogen-activated protein kinase kinase 5 (Homo sapiens, UniProt Q13163)
Sequence (Q13163 whole entry): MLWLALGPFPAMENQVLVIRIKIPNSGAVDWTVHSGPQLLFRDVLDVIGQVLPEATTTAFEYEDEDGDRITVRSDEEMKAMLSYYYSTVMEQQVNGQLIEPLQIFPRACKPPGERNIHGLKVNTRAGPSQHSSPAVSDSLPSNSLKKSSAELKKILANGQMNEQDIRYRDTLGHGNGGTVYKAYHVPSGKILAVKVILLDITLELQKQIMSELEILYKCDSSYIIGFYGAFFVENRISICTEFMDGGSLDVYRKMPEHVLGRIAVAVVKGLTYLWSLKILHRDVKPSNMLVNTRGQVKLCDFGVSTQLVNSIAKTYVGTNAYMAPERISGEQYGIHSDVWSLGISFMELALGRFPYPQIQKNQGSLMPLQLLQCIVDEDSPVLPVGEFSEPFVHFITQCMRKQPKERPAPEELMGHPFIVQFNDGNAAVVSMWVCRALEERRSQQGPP
Experiment: biochemical
Endpoint name: Kd (nM)
Response body: numeric value in nM, unit text excluded.

Tested on Dual specificity mitogen-activated protein kinase kinase 5 (Homo sapiens, UniProt Q13163): "CCOc1cn(-c2ccc(F)cc2C)nc1C(=O)Nc1ccc(Oc2ccnc3cc(OC)c(OC)cc23)c(F)c1" . Observed Kd: 124

----------
Target: UniProt:Q96GD4
Sequence (Q96GD4 whole entry): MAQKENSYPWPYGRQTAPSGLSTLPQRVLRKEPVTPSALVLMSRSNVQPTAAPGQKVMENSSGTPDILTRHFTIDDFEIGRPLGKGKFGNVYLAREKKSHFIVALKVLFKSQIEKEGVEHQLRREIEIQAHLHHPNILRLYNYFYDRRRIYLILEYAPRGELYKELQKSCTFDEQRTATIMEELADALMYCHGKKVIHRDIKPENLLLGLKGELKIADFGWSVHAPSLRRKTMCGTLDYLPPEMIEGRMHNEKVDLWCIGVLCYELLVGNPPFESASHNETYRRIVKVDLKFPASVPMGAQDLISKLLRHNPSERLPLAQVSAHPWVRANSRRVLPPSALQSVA
Endpoint name: IC50

Tested on UniProt:Q96GD4: "CCOc1cn(-c2ccc(F)cc2C)nc1C(=O)Nc1ccc(Oc2ccnc3cc(OC)c(OC)cc23)c(F)c1" . Observed IC50: 36 nM

----------
Target: Hepatocyte growth factor receptor (Homo sapiens)
Sequence (P08581 whole entry): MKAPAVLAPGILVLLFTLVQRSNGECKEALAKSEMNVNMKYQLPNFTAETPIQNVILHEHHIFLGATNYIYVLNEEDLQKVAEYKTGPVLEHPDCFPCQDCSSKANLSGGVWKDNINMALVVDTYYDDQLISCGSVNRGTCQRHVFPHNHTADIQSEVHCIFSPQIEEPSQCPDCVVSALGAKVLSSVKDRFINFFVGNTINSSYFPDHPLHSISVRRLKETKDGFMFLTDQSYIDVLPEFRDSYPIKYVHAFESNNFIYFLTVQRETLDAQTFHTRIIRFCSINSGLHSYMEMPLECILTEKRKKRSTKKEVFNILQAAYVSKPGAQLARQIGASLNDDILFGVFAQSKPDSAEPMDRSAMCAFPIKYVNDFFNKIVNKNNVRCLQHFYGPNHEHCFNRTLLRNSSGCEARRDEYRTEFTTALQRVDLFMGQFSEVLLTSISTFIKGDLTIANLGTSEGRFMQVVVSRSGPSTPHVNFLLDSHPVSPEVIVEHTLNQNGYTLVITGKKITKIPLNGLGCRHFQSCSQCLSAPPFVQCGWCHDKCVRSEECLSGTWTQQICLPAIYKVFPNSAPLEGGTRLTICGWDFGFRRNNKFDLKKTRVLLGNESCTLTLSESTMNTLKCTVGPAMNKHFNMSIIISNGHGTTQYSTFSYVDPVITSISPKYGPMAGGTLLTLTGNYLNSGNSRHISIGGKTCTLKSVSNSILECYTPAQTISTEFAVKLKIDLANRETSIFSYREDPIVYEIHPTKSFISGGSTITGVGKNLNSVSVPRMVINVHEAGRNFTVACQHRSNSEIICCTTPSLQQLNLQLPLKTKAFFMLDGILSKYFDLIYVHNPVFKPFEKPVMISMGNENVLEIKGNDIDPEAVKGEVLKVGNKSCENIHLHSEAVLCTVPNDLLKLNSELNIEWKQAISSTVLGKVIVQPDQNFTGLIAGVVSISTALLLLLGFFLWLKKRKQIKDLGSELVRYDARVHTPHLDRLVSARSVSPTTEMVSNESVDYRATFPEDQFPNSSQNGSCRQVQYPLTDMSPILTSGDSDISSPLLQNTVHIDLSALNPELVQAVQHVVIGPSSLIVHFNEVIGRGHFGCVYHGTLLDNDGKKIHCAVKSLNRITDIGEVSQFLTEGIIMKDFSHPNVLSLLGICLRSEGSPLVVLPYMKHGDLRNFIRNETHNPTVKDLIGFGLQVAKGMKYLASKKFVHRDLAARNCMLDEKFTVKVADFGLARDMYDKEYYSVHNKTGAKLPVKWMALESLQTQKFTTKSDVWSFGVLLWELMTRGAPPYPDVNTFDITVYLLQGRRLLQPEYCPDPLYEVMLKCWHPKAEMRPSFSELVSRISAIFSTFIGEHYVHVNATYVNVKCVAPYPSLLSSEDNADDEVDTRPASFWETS
Endpoint name: IC50 (nM)
Response body: numeric value in nM, unit text excluded.

Tested on Hepatocyte growth factor receptor (Homo sapiens): "CCOc1cn(-c2ccc(F)cc2C)nc1C(=O)Nc1ccc(Oc2ccnc3cc(OC)c(OC)cc23)c(F)c1" . Observed IC50: 35

----------
Molecular target: Proto-oncogene tyrosine-protein kinase Src (Homo sapiens)
Sequence (P12931 whole entry, looked up): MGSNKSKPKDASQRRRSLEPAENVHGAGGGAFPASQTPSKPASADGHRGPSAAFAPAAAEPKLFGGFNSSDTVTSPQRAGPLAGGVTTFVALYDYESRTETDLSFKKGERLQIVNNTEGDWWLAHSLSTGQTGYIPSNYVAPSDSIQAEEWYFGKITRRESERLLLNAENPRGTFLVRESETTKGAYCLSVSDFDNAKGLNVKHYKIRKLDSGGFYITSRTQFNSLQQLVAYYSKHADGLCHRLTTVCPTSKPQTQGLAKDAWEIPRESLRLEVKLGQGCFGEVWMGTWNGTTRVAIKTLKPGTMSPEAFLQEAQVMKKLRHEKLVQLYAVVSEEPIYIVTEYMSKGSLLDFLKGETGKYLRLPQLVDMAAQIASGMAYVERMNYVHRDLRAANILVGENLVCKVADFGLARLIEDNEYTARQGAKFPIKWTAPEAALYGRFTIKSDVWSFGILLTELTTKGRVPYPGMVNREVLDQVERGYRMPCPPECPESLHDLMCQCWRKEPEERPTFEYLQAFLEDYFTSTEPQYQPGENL
Endpoint name: IC50 (nM)
Response body: numeric value in nM, unit text excluded.

Entry under test: "CCOc1cn(-c2ccc(F)cc2C)nc1C(=O)Nc1ccc(Oc2ccnc3cc(OC)c(OC)cc23)c(F)c1" . Its IC50 was 338
